test: Plasma and brain concentrations of drugs at the end of the audiogenic seizure experiment (LC-MS); assay type: in vivo, mouse; conditions: DBA/2J, mouse, brain, oral, 10 mg/kg, analyte LEV; vehicle 3 h + LEV 10 mg/kg 1 h before stimulus, oral gavage; mean ± SEM; read-out: Brain concentration total
endpoint name: concentration at 1 h (ng/g)

> print(dat)
                                   compound         endpoint.name  value.reported
1  CC[C@@H](C(N)=O)N1CCCC1=O [LEV, (S)-2-(2-oxopyrrolidin-1-yl)butanamide]  concentration at 1 h            2130

----------
experiment: Plasma and brain concentrations of drugs at the end of the audiogenic seizure experiment (LC-MS); type: in vivo, mouse; details: DBA/2J, mouse, plasma, oral, 50 mg/kg, analyte LEV; vehicle 3 h + LEV 50 mg/kg 1 h before stimulus, oral gavage; mean ± SEM; read-out: Plasma concentration total
endpoint name: concentration at 1 h (ng/mL)

> print(dat)
                                   molecule         endpoint.name  value.reported
1  CC[C@@H](C(N)=O)N1CCCC1=O [LEV, (S)-2-(2-oxopyrrolidin-1-yl)butanamide]  concentration at 1 h           26500

----------
assay: Plasma and brain concentrations of drugs at the end of the audiogenic seizure experiment (LC-MS); format: in vivo, mouse; details: DBA/2J, mouse, plasma, oral, analyte VPA; COMPOUND 1 10 mg/kg 3 h + VPA 200 mg/kg 1 h before stimulus, oral gavage; mean ± SEM; read-out: Plasma concentration total
endpoint name: concentration at 1 h (µg/mL)

> print(dat)
   chemical.structure         endpoint.name  value.reported
1     CCCC(CCC)C(=O)O  concentration at 1 h             123

----------
assay: Plasma and brain concentrations of drugs at the end of the audiogenic seizure experiment (LC-MS); type: in vivo, mouse; conditions: DBA/2J, mouse, plasma, oral, analyte COMPOUND 1; COMPOUND 1 10 mg/kg 3 h + LEV 50 mg/kg 1 h before stimulus, oral gavage; mean ± SEM; read-out: Plasma concentration total
endpoint name: concentration at 3 h (ng/mL)

> print(dat)
                                   molecule  value.reported
1  N#Cc1ccc(Cn2ccc(NC(=O)Cc3ccc(C4(C(F)(F)F)CC4)cc3)n2)nc1 [COMPOUND 1]            1720

----------
experiment: Plasma and brain concentrations of drugs at the end of the audiogenic seizure experiment (LC-MS); assay type: in vivo, mouse; settings: DBA/2J, mouse, brain, oral, analyte LEV; COMPOUND 1 10 mg/kg 3 h + LEV 1 mg/kg 1 h before stimulus, oral gavage; mean ± SEM; read-out: Brain concentration total
endpoint name: concentration at 1 h (ng/g)

> print(dat)
                                   molecule         endpoint.name  value.reported
1  CC[C@@H](C(N)=O)N1CCCC1=O [LEV, (S)-2-(2-oxopyrrolidin-1-yl)butanamide]  concentration at 1 h             310

----------
test: Plasma and brain concentrations of drugs at the end of the audiogenic seizure experiment (LC-MS); format: in vivo, mouse; settings: DBA/2J, mouse, brain, po, 30 mg/kg, analyte COMPOUND 1; COMPOUND 1 30 mg/kg 3 h + vehicle 1 h before stimulus, oral gavage; mean ± SEM; read-out: Brain concentration total
endpoint name: concentration at 3 h

> print(dat)
                         chemical.structure  value.reported
1  N#Cc1ccc(Cn2ccc(NC(=O)Cc3ccc(C4(C(F)(F)F)CC4)cc3)n2)nc1       5230 ng/g

----------
experiment: Plasma and brain concentrations of drugs at the end of the audiogenic seizure experiment (LC-MS); format: in vivo, mouse; conditions: DBA/2J, mouse, brain, oral, analyte COMPOUND 1; COMPOUND 1 30 mg/kg 3 h + VPA 200 mg/kg 1 h before stimulus, oral gavage; mean ± SEM; read-out: Brain concentration total
endpoint name: concentration at 3 h (ng/g)

> print(dat)
                         chemical.structure  units.symbol  value.reported
1  N#Cc1ccc(Cn2ccc(NC(=O)Cc3ccc(C4(C(F)(F)F)CC4)cc3)n2)nc1          ng/g            4990

----------
experiment: Plasma and brain concentrations of drugs at the end of the audiogenic seizure experiment (LC-MS); format: in vivo, mouse; details: DBA/2J, mouse, plasma, oral, analyte COMPOUND 1; COMPOUND 1 30 mg/kg 3 h + VPA 30 mg/kg 1 h before stimulus, oral gavage; mean ± SEM; read-out: Plasma concentration total
endpoint name: concentration at 3 h

> print(dat)
                         chemical.structure         endpoint.name  value.reported
1  N#Cc1ccc(Cn2ccc(NC(=O)Cc3ccc(C4(C(F)(F)F)CC4)cc3)n2)nc1  concentration at 3 h      3150 ng/mL

----------
Assay: Plasma and brain concentrations of drugs at the end of the audiogenic seizure experiment (LC-MS)
Type: in vivo, mouse
Settings: DBA/2J, mouse, plasma, oral, 200 mg/kg, analyte VPA; vehicle 3 h + VPA 200 mg/kg 1 h before stimulus, oral gavage; mean ± SEM; read-out: Plasma concentration total
Method: Briefly, blood was sampled from the vena cava caudalis with a syringe pre-filled with EDTA (ethylenediamine tetraacetic acid) as anticoagulant and centrifuged to yield plasma (for 10 minutes, at 4° C. and 5000 rpm (rounds per minute)). Brain was sampled and homogenized into one volume of cold phosphate buffer (pH 7.4). Following extraction with methanol, concentrations of the compound in plasma and brain were determined using liquid chromatography coupled to mass spectrometry. […]
endpoint name: concentration at 1 h (µg/mL)

> print(dat)
   chemical.structure         endpoint.name  value.reported
1     CCCC(CCC)C(=O)O  concentration at 1 h             133

----------
test: Plasma and brain concentrations of drugs at the end of the audiogenic seizure experiment (LC-MS); type: in vivo, mouse; details: DBA/2J, mouse, plasma, oral, analyte LTG; COMPOUND 1 30 mg/kg 3 h + LTG 3 mg/kg 1 h before stimulus, oral gavage; mean ± SEM; read-out: Plasma concentration total
endpoint name: concentration at 1 h (ng/mL)

> print(dat)
              chemical.structure         endpoint.name  units.symbol  value.reported
1  Nc1nnc(-c2cccc(Cl)c2Cl)c(N)n1  concentration at 1 h         ng/mL             284

----------
assay: Plasma and brain concentrations of drugs at the end of the audiogenic seizure experiment (LC-MS); format: in vivo, mouse; settings: DBA/2J, mouse, brain, oral, analyte LTG; COMPOUND 1 30 mg/kg 3 h + LTG 3 mg/kg 1 h before stimulus, oral gavage; mean ± SEM; read-out: Brain concentration total
endpoint name: concentration at 1 h (ng/g)

> print(dat)
              chemical.structure  value.reported
1  Nc1nnc(-c2cccc(Cl)c2Cl)c(N)n1            1370

----------
experiment: Plasma and brain concentrations of drugs at the end of the audiogenic seizure experiment (LC-MS); assay type: in vivo, mouse; settings: DBA/2J, mouse, brain, oral, analyte VPA; COMPOUND 1 10 mg/kg 3 h + VPA 100 mg/kg 1 h before stimulus, oral gavage; mean ± SEM; read-out: Brain concentration total
endpoint name: concentration at 1 h

> print(dat)
   chemical.structure         endpoint.name  value.reported
1     CCCC(CCC)C(=O)O  concentration at 1 h      14600 ng/g

----------
assay: Plasma and brain concentrations of drugs at the end of the audiogenic seizure experiment (LC-MS); assay type: in vivo, mouse; conditions: DBA/2J, mouse, plasma, oral, analyte COMPOUND 1; COMPOUND 1 10 mg/kg 3 h + LEV 10 mg/kg 1 h before stimulus, oral gavage; mean ± SEM; read-out: Plasma concentration total
endpoint name: concentration at 3 h (µg/mL)

> print(dat)
                         chemical.structure  value.reported
1  N#Cc1ccc(Cn2ccc(NC(=O)Cc3ccc(C4(C(F)(F)F)CC4)cc3)n2)nc1            1.59

----------
assay: Plasma and brain concentrations of drugs at the end of the audiogenic seizure experiment (LC-MS); type: in vivo, mouse; conditions: DBA/2J, mouse, brain, oral, analyte LEV; COMPOUND 1 10 mg/kg 3 h + LEV 10 mg/kg 1 h before stimulus, oral gavage; mean ± SEM; read-out: Brain concentration total
endpoint name: concentration at 1 h (ng/g)

> print(dat)
                                   compound         endpoint.name  value.reported
1  CC[C@@H](C(N)=O)N1CCCC1=O [LEV, (S)-2-(2-oxopyrrolidin-1-yl)butanamide]  concentration at 1 h            2590

----------
test: Plasma and brain concentrations of drugs at the end of the audiogenic seizure experiment (LC-MS); format: in vivo, mouse; details: DBA/2J, mouse, brain, oral, analyte LTG; COMPOUND 1 10 mg/kg 3 h + LTG 10 mg/kg 1 h before stimulus, oral gavage; mean ± SEM; read-out: Brain concentration total
endpoint name: concentration at 1 h (ng/g)

> print(dat)
              chemical.structure  value.reported
1  Nc1nnc(-c2cccc(Cl)c2Cl)c(N)n1            3690
